molecular target: T1, rat NGF (rat, UniProt P25427 122-241); test: SPR (Biacore T200), 100 nM mAb on NGF chip, similarity to parent mAb
T1 construct: also called rN
T1 sequence (P25427 122-241 limits assumed): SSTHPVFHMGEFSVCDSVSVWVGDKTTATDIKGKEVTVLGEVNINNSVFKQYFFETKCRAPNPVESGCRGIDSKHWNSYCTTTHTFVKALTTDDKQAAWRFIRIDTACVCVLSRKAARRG
In this section, each of the binders is paired with its reported Percent Similarity Score (KD on rN).
Just the number please, in %, no unit attached.

binder	Percent Similarity Score (KD on rN) [%]
can9L12VH_E99A (antibody, V domains shown) VH: EVQLVESGGDLVKPGGSLRLSCVASGFTFSSHGMHWVRQSPGKGLQWVAVINSGGSSTYYTDAVKGRFTISRDNAKNTVYLQMNSLRAEDTAMYYCAKASVGGWEQLVGPHFDYWGQGTLVIVSS VL: QSVLTQPTSVSGSLGQRVTISCSGSTNNIGILGASWYQLFPGKAPKLLVYGNGNRPSGVPDRFSGADSGDSVTLTITGLQAEDEADYYCQSFDTTLGAHVFGGGTHLTVL	80.5

Here is the next item to consider.
What the record says about can9L12VH_K98A (antibody, V domains shown) VH: EVQLVESGGDLVKPGGSLRLSCVASGFTFSSHGMHWVRQSPGKGLQWVAVINSGGSSTYYTDAVKGRFTISRDNAKNTVYLQMNSLRAEDTAMYYCAAESVGGWEQLVGPHFDYWGQGTLVIVSS VL: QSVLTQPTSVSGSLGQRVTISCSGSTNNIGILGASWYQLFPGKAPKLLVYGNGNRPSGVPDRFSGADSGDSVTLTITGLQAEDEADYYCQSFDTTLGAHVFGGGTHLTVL : Percent Similarity Score (KD on rN) is 7.92
